Activity (control) % EGFR (T790M) (h) values for the compounds below.
System: EGFR (T790M) (h)
Format: biochemical, human
Conditions: 0.1 μM test compound, 10 μM ATP; remaining activity relative to DMSO control = 100%
Lab book: enter the figure in %, no units written.

Request: Returns the measured Activity (control) % EGFR (T790M) (h) for the input compound. Input: C=CC(=O)Nc1cc(Nc2ncc(Cl)c(Nc3ccccc3C(=O)C(=O)N(C)CCN(C)C)n2)ccc1OC [Example 102]
Result: 40

Request: Returns the measured Activity (control) % EGFR (T790M) (h) for the input compound. Input: CCN(CC)C(=O)C(=O)c1ccccc1Nc1nc(Nc2ccc(N3CCN(C)CC3)c(OC)c2)ncc1Cl [Example 130]
Result: 84

Request: Returns the measured Activity (control) % EGFR (T790M) (h) for the input compound. Input: C=C(CN1CCOCC1)C(=O)Nc1cccc(Nc2ncc(Cl)c(Nc3ccccc3C(=O)C(=O)N(C)C)n2)c1 [Example 112]
Result: 14

Request: Returns the measured Activity (control) % EGFR (T790M) (h) for the input compound. Input: C=C(CN(C)CCN(C)C)C(=O)Nc1cccc(Nc2ncc(Cl)c(Nc3ccccc3C(=O)C(=O)N(C)C)n2)c1 [Example 125]
Result: 18

* * *

Tested on: EGFR (T790M) (h)
Format: biochemical, human
Conditions: 0.1 μM test compound, 10 μM ATP; remaining activity relative to DMSO control = 100%
METRIC NAME: Activity (control) % EGFR (T790M) (h) (%)
Lab book: enter the figure in %, no units written.

| LINE NOTATION | MEASUREMENT UNITS | Activity (control) % EGFR (T790M) (h) |
| --- | --- | --- |
| C=CC(=O)Nc1ccc(OC)c(Nc2ncc(Cl)c(Nc3ccccc3C(=O)C(=O)N(CC)CC)n2)c1 | % | 82 |
| C=CC(=O)Nc1cc(Nc2ncc(Cl)c(Nc3ccccc3C(=O)C(=O)NC)n2)ccc1OC | % | 79 |

Request: Returns the measured Activity (control) % EGFR (T790M) (h) for the input compound. Input: C=CC(=O)Nc1cc(Nc2ncc(Cl)c(Nc3ccccc3C(=O)C(=O)N(C)C)n2)ccc1OC
Result: 80
